Reported GI50 values follow for various compounds
Test system: DMS-273
Assay: NCI tumour cell line growth inhibition, 48 h
Calls of active or inactive are those of the source. No stated cut-off is given here; in the data, active = GI50 up to about 1.1 µM and inactive = higher.
Experimental Readout: GI50

>>> value_reported("CCOC(=O)NN1C(=O)C(=P(c2ccccc2)(c2ccccc2)c2ccccc2)C(C(=O)OCC)=C1C")
"> 100 µM (inactive)"
>>> value_reported("COc1c2c(c3c(c1C1OC(C)[C@@H](C)O1)CC(C)(C)O3)C(=O)c1ccccc1C2=O (stereo partly specified)")
"24.2 µM (inactive)"
>>> value_reported("O=C(O)c1c2c(cc3c(=O)cc(-c4ccccc4)oc13)CCCC2")
"> 100 µM (inactive)"
>>> value_reported("COc1cc(C)c(C(=O)/C=C/c2cc(OC)c(O)c(OC)c2)cc1O")
"15.5 µM (inactive)"
>>> value_reported("COc1ccccc1NC(=O)c1nc2ccc([N+](=O)[O-])cc2nc1C")
"> 100 µM (inactive)"
>>> value_reported("C=C1CCC23CC(CC[C@@H]2[C@@]12C[C@@H](c1ccoc1)OC2=O)OC3=O (stereo partly specified)")
"> 100 µM (inactive)"

* * *

Tested on: MOLT-4
Assay: NCI tumour cell line growth inhibition, 48 h
Activity calls are given as the source filed them. No stated cut-off is given here; in the data, active = GI50 up to about 1.1 µM and inactive = higher.
Possible outcomes: active, inactive

>>> cat("Cc1c(/C=N\\NC(=S)NCCNC(=S)N/N=C\\c2c(C)n(C)n(-c3ccccc3)c2=O)c(=O)n(-c2ccccc2)n1C")
"inactive"
>>> cat("O=[N+]([O-])c1cc(CCl)ccc1CCl")
"inactive"
>>> cat("C/C(=N/O)c1cccc(Nc2nc3ccc(Cl)cc3c3[nH]c4ccccc4c23)c1")
"active"
>>> cat("O=C(O)CC[N+]1=CCC(c2ccccc2)(c2ccccc2)O1")
"inactive"

* * *

Test system: HOP-62
Assay: NCI tumour cell line growth inhibition, 48 h
Active and inactive are the calls of the source. Rule as the data show it: active = GI50 up to about 1.1 µM and inactive = higher.
Reported GI50 values follow for various molecules
Experimental Readout: GI50

>>> value_reported("O=C(CCc1cccc(O)c1)NCCc1cccc(OCc2ccccc2)c1")
"15.3 µM (inactive)"
>>> value_reported("CCCCCCCCOC(CO)CO")
"> 100 µM (inactive)"
>>> value_reported("Cc1cc(Cl)cc2c1NC(=O)C2(O)C(C)C(=O)c1ccc(Cl)cc1 (stereo not given)")
"> 100 µM (inactive)"
>>> value_reported("O=C(O)CNn1c(SCC(=O)O)nnc(/C=C/c2c(O)ccc3ccccc23)c1=O")
"16.1 µM (inactive)"
>>> value_reported("CCOC(=O)NN1C(=O)C(=P(c2ccccc2)(c2ccccc2)c2ccccc2)C(C(=O)OCC)=C1C")
"> 100 µM (inactive)"

* * *

Test system: HCT-116
Assay: NCI tumour cell line growth inhibition, 48 h
The source made the active and inactive calls. No stated cut-off is given here; in the data, active = GI50 up to about 1.1 µM and inactive = higher.
Experimental Readout: GI50

>>> value_reported("O=C(CC(=O)n1nc(-c2ccccc2)c(/N=N/c2ccc(Cl)cc2)c1-c1ccccc1)Nc1ccc(Cl)cc1")
"> 39.9 µM (inactive)"
>>> value_reported("Cc1csc(-n2c(C)nc3cc(Cl)ccc3c2=O)n1")
"> 100 µM (inactive)"
>>> value_reported("CCNC(=S)N/N=C1\\C(=O)Nc2ccc([N+](=O)[O-])cc21")
"27.7 µM (inactive)"
>>> value_reported("O=Cc1ccc2ccocc1-2")
"> 100 µM (inactive)"
>>> value_reported("CSc1cc(Cl)c(C)cc1S(=O)(=O)NC(=O)NNc1cnc2ccccc2n1")
"> 100 µM (inactive)"
>>> value_reported("CN1C(=O)C(O)C[C@@H]1c1ccc(F)cc1 (stereo partly drawn)")
"> 100 µM (inactive)"
>>> value_reported("Cc1ccc(S(=O)(=O)NC(=O)Nc2ccc(C(=O)O)cc2)cc1")
"> 100 µM (inactive)"
>>> value_reported("O=C(C[n+]1ccccc1)N/N=C(\\C(=O)NC1=C(Cl)C(=O)c2ccccc2C1=O)c1c(O)c2ccc(O)cc2oc1=O")
"2.99 µM (inactive)"
